Values were extracted from PubChem BioAssay (EPA / NIEHS).

# experimental_details: TOX21_p53_BLA_p2_viability: Viability Assessment in the Tox21 HCT-116 p53 Agonism Beta-lactamase Assay, Phase 2 (AID 2283591);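 further: compound exposure lasted 16 h at 37 °C; actives lower the ATP signal meaning cytotoxicity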
Inconclusive results are not listed. The source made the active and inactive calls. How the source made its calls: active means hit-call score of the fitted dose curve at least 0.9, where 1 is the maximum; inconclusive means response in the unintended direction; inactive means score below 0.9.
Give one outcome, nothing more. List: T = active, F = inactive

molecule	class_assignment
Cc1cccc(C)c1NC(=O)C1CCCCN1C (stereo not drawn)	F
NC(=O)CCCCC(N)=O	F
CCCCCCCCCCCCCCNCCO	F
CCN(CC)CCNC(=O)c1ccc(NS(C)(=O)=O)cc1	F
CC(=O)Oc1ccc(C2(c3ccc(OC(C)=O)cc3)Oc3ccccc3NC2=O)cc1	F

Now look at this one.
Status in this test for CCCCCCCCS(=O)C(C)Cc1ccc2c(c1)OCO2 (stereo not drawn) ?
T
